Item-by-item account of IC50
Target: G12V-mutant human KRAS (amino acid residues 1-188) (Homo sapiens, UniProt P01116, G12V)
Construct: G12V-mutant human KRAS (amino acid residues 1-188) with FLAG tag was purified from E. coli; made in house; host or cells: E. coli
Assay: KRAS Binding Competition Assay (AlphaScreen; biotinylated KRpep-2d analogue), G12V
Conditions: geometric mean, read-out: KRAS GMean IC50 (uM) MUTATION: G12V

Use these answered entries as a reference point.
CN1CCC[C@H]1COc1nc(N2C[C@H]3CC[C@@H](C2)N3)c2ccc(-c3c[nH]c4ncccc34)cc2n1 ... 10 to 100 µM
CCN1CC[C@H](NC(=O)N2[C@@H]3CC[C@H]2CN(c2nc(OCC4CCCN4C)nc4c(F)c(-c5cc(O)cc6ccccc56)ccc24)C3)C1 (stereo partly drawn) ... 10 to 100 µM
NS(=O)(=O)NCC(=O)N1[C@@H]2CC[C@H]1CN(c1nc(OCC34CCCN3CCC4)nc3c(F)c(-c4cc(O)cc5ccccc45)ccc13)C2 ... 0.0001 to 10 µM
Cc1cccc2cccc(-c3ccc4c(N5C[C@H]6CC[C@@H](C5)N6)nc(OC[C@@H]5CCCN5C)nc4c3F)c12 ... 10 to 100 µM
CN1CCC[C@H]1COc1nc(N2C[C@H]3CC[C@@H](C2)N3C(=O)C2CCC(=O)N2)c2ccc(-c3cc(O)cc4ccccc34)c(F)c2n1 (stereo partly drawn) ... 0.0001 to 10 µM

Prompt: Write down measured IC50 (G12V-mutant human KRAS (amino acid residues 1-188) (Homo sapiens, UniProt P01116, G12V)) for this compound. `CN1CCC[C@H]1COc1nc(N2[C@@H]3CC[C@H]2CN(C(=O)CCC2CCNCC2)C3)c2ccc(-c3cc(O)cc4ccccc34)cc2n1`
Completion: 10 to 100 µM

Prompt: Write down measured IC50 (G12V-mutant human KRAS (amino acid residues 1-188) (Homo sapiens, UniProt P01116, G12V)) for this compound. `Cc1ccc(N)cc1-c1ccc2c(N3C[C@H]4CC[C@@H](C3)N4)nc(OC[C@@H]3CCCN3C)nc2c1`
Completion: 10 to 100 µM

Prompt: Write down measured IC50 (G12V-mutant human KRAS (amino acid residues 1-188) (Homo sapiens, UniProt P01116, G12V)) for this compound. CC(=O)Nc1cccc(-c2ccc3c(N4C[C@H]5CC[C@@H](C4)N5)nc(OCC4CCCN4C)nc3c2)c1 (stereo partly drawn)
Completion: 100 to 1000 µM

Prompt: Write down measured IC50 (G12V-mutant human KRAS (amino acid residues 1-188) (Homo sapiens, UniProt P01116, G12V)) for this compound. `CN1CCC[C@H]1COc1nc(N2C[C@H]3CC[C@@H](C2)N3)c2ccc(-c3c(Cl)ccc4[nH]ccc34)cc2n1`
Completion: 10 to 100 µM

Prompt: Write down measured IC50 (G12V-mutant human KRAS (amino acid residues 1-188) (Homo sapiens, UniProt P01116, G12V)) for this compound. `N#CCC(=O)N1[C@@H]2CC[C@H]1CN(c1nc(OCC34CCCN3CCC4)nc3c(F)c(-c4cc(O)cc5ccccc45)c(Cl)cc13)C2`
Completion: 0.0001 to 10 µM

Prompt: Write down measured IC50 (G12V-mutant human KRAS (amino acid residues 1-188) (Homo sapiens, UniProt P01116, G12V)) for this compound. `Cc1nc2cc(-c3ccc4c(N5C[C@H]6CC[C@@H](C5)N6)nc(OC[C@@H]5CCCN5C)nc4c3)ccc2[nH]1`
Completion: 100 to 1000 µM

Prompt: Write down measured IC50 (G12V-mutant human KRAS (amino acid residues 1-188) (Homo sapiens, UniProt P01116, G12V)) for this compound. `O=C(N[C@@H]1C[C@H]2CC[C@@H]1O2)N1[C@@H]2CC[C@H]1CN(c1nc(OCC34CCCN3CCC4)nc3cc(-c4cc(O)cc5ccccc45)ccc13)C2`
Completion: 0.0001 to 10 µM

Hey, just so you know, these numbers are from patent US20230081426A1.
